Entry source: PubChem BioAssay (NCI)

system: NCI-H322M lung; assay: NCI-60 one-dose screen, 48 h (100 = growth as untreated, 0 = no growth, -100 = all killed); conditions: 10 µM unless noted
The panel holds about 83,000 compounds, 20% with a hit somewhere; the sample as a whole holds those more often. Activity calls are given as the source filed them. Rule for the calls: active = growth percent below 10; inactive = the rest.
Measured parameter: growth

>>> value("OC(c1ccc(Cl)cc1)(c1ccc(Cl)cc1)C(O)(c1ccc(Cl)cc1)c1ccc(Cl)cc1")
"46.4% (inactive)"
>>> value("COc1ccc(-c2cc(-c3ccc(Cl)cc3)nc(NCCCCNc3ccnc4cc(Cl)ccc34)n2)cc1")
"94.4% (inactive)"
>>> value("COc1ccc(C2NC(=O)C(C#N)c3c2sc2c(F)cccc32)cc1 (stereo not given)")
"65.3% (inactive)"
>>> value("CCOc1ccc(S(=O)(=O)Nc2ccc3c(c2)N(S(=O)(=O)CC)CCC3)cc1")
"86.8% (inactive)"
>>> value("Cc1cc(C)c(-c2cc(O)c(-c3c(C)cc(C)cc3C)cc2O)c(C)c1")
"68.6% (inactive)"

====

system: CAKI-1 renal; experiment: NCI-60 one-dose screen, 48 h; settings: 10 µM unless noted
The panel holds about 83,000 compounds, 20% with a hit somewhere; the sample as a whole holds those more often. Calls of active or inactive are those of the source. The calls were made as follows: active = growth percent below 10; inactive = the rest.
Labels: 1 for active, -1 for inactive

>>> assigned_category("CC(=O)OC[C@]12CC[C@@H](C(=O)CBr)[C@@H]1[C@H]1CC[C@@H]3[C@@]4(C)CCCNC(C)(C)[C@@H]4CC[C@@]3(C)[C@]1(C)CC2")
1
>>> assigned_category("CCCCCCCCCCCCNC(=S)N/N=C/c1ccccc1O")
-1
>>> assigned_category("COc1cc2c(c(OC)c1OC)-c1cc(I)c(O)cc1[C@@H](NC(C)=O)CC2")
-1
>>> assigned_category("O=C(NCc1ccccc1)C(Cl)Cl")
-1
>>> assigned_category("O=C(NCCCNC(=O)OCc1ccc2cccc(O)c2n1)OCc1ccc2cccc(O)c2n1")
-1

====

System: MCF7 breast
Test: NCI-60 one-dose screen, 48 h (100 = growth as untreated, 0 = no growth, -100 = all killed)
Settings: 10 µM unless noted
Description: Growth inhibition of the MCF7 human tumor cell line is measured as a screen for anti-cancer activity. Cells are grown in 96 well plates and exposed to the test compound for 48 hours. Compounds are tested at a single concentration, which is 10^-5 M for most compounds. The reported endpoint is percent growth (GI% or GIPRCNT), where numbers from 0 - 100% represent growth inhibition, and numbers from -100% - 0 represent cell death. For example, a value of 40 represents 60% growth inhibition. […]
This is part of a sample that, as a whole, favours compounds with a hit. Of some 83,000 tested, about 20% had one in any assay. The source made the active and inactive calls. How the source made its calls: active means growth percent below 10; inactive means the rest.
growth for assorted compounds
Measured parameter: growth

>>> value("C=C(C)[C@@H]1CC[C@]2(C(N)=O)CC[C@]3(C)[C@H](CC[C@@H]4[C@@]5(C)C/C(=C/c6cccnc6)[C@H](O)C(C)(C)[C@@H]5CC[C@]43C)[C@@H]12")
"11.3% [100 µM] (inactive)"
>>> value("Nc1nc(Cl)c2ncn(Cc3cc4c(cc3I)OCO4)c2n1")
"18.9% (inactive)"
>>> value("CC(C)(C)c1cc(C(=O)Nc2ccccc2C(=O)NCCN)cc(C(C)(C)C)c1")
"-63.1% (active)"
>>> value("CC1(C)OC2[C@@H](CNC(=O)NC(=O)NC(=O)CI)O[C@@H](n3cnc4c(NC(=O)Nc5ccccc5)ncnc43)[C@H]2O1 (stereo not given in full)")
"33% (inactive)"
>>> value("CCCCOC(=O)c1c(C)[nH]c(/C=C2\\N=C(c3ccc[nH]3)C=C2OC)c1C")
"-44.2% (active)"
